target: T1, human EpCAM expressed on cells (CHO, Colo205, 293) (human, UniProt P16422 24-314)
T1 construct: whole, on cells; also called CHO cells expressing human EpCAM; Colo205 cells expressing human EpCAM
T1 sequence (looked up): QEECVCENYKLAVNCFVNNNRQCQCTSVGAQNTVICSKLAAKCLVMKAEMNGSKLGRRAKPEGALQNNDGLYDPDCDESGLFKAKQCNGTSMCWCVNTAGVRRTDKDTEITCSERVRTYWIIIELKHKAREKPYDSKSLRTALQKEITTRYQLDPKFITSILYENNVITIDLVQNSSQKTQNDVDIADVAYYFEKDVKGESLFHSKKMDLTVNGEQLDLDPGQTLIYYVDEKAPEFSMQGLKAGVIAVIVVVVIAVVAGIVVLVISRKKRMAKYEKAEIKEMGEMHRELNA
protocolNotes: FACS of MMAE conjugates on Colo205 cells expressing human EpCAM, pH 7.4

# binder, EC50, µg/mL
records = [
    ("BA-105.4-01-05 8317-vcMMAE (antibody, V domains shown, antibody conjugated to vcMMAE; chain and residues of attachment not stated) VH: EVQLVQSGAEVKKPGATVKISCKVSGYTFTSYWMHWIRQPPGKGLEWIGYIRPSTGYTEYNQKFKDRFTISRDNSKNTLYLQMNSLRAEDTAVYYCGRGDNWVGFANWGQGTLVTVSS VL: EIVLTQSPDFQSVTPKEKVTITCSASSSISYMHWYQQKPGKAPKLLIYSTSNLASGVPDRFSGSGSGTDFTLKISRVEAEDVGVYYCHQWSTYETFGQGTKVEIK", 0.203),
    ("BA-105.4-01-02 8316-vcMMAE (antibody, V domains shown, antibody conjugated to vcMMAE; chain and residues of attachment not stated) VH: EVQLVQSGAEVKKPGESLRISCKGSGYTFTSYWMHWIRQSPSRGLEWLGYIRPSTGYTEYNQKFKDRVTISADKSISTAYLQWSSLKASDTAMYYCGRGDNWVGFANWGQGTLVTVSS VL: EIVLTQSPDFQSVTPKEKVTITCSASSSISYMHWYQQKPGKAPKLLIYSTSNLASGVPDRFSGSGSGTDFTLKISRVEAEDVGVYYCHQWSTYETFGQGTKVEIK", 0.153),
    ("BA-105.4-02-01 8318-vcMMAE (antibody, V domains shown, antibody conjugated to vcMMAE; chain and residues of attachment not stated) VH: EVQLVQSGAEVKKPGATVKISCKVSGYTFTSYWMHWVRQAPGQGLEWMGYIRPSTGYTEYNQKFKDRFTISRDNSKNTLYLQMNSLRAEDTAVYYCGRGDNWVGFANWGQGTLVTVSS VL: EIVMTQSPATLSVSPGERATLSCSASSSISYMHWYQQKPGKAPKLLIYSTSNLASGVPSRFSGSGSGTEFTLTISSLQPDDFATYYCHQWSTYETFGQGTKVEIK", 0.693),
    ("BA-105-01-01 7376-vcMMAE (antibody, V domains shown, antibody conjugated to vcMMAE; chain and residues of attachment not stated) VH: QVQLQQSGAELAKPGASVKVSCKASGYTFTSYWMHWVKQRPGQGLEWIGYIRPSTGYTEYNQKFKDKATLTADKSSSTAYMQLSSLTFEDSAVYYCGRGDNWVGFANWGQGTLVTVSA VL: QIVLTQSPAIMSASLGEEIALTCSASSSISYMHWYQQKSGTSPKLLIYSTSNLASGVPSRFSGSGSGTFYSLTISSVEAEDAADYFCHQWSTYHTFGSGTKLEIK", 0.375),
]
